meta.source: PubChem BioAssay AID1963958

# viability, T/C per record follows
System: MDA-MB-231 multicell spheroids, viability
assayText: Anticancer human tumor MDA-MB-231 cell line growth inhibition [PI3K];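 note: spheroids exposed to agents for seven days before reading; percent of vehicle control luminescence with DMSO treated spheroids as 100%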
conditionDescription: second compound 0.1 µM; first compound 0.001 µM; active compounds read low
Unit % implied. Number only.

Solved cases below.
[
  {
    "molecule": "CC(C)n1nc(-c2ccc3oc(N)nc3c2)c2c(N)ncnc21 + CC(Nc1ccc2c(c1)OCCn1cc(N3C(=O)OCC3C(F)F)nc1-2)C(N)=O",
    "viability, T/C (%)": 63
  },
  {
    "molecule": "CC(=O)c1c(C)c2cnc(Nc3ccc(N4CCNCC4)cn3)nc2n(C2CCCC2)c1=O + COc1c(OCCCN2CCOCC2)ccc2c3n(c(=NC(=O)c4cnc(N)nc4)nc12)CCN3",
    "viability, T/C (%)": 44.9
  },
  {
    "molecule": "Cn1ncnc1[C@H]1c2n[nH]c(=O)c3cc(F)cc(c23)N[C@@H]1c1ccc(F)cc1 + CC(Nc1ccc2c(c1)OCCn1cc(N3C(=O)OCC3C(F)F)nc1-2)C(N)=O",
    "viability, T/C (%)": 69.7
  },
  {
    "molecule": "CC(=O)c1c(C)c2cnc(Nc3ccc(N4CCNCC4)cn3)nc2n(C2CCCC2)c1=O + Cc1nc(NC(=O)N2CCCC2C(N)=O)sc1-c1ccnc(C(C)(C)C(F)(F)F)c1",
    "viability, T/C (%)": 85.5
  },
  {
    "molecule": "CC(C)n1nc(-c2ccc3oc(N)nc3c2)c2c(N)ncnc21 + Cc1nc(NC(=O)N2CCCC2C(N)=O)sc1-c1ccnc(C(C)(C)C(F)(F)F)c1",
    "viability, T/C (%)": 85.7
  },
  {
    "molecule": "CC(=O)c1c(C)c2cnc(Nc3ccc(N4CCNCC4)cn3)nc2n(C2CCCC2)c1=O + CC(Nc1ccc2c(c1)OCCn1cc(N3C(=O)OCC3C(F)F)nc1-2)C(N)=O",
    "viability, T/C (%)": 65.7
  }
]

Enquiry: So what's the measured viability, T/C for this one? CC(=O)c1c(C)c2cnc(Nc3ccc(N4CCNCC4)cn3)nc2n(C2CCCC2)c1=O + CC(Nc1ncnc2nc[nH]c12)c1cc2cccc(Cl)c2c(=O)n1-c1ccccc1
Return: 99.6

Enquiry: Sample Cn1ncnc1[C@H]1c2n[nH]c(=O)c3cc(F)cc(c23)N[C@@H]1c1ccc(F)cc1 + Cc1nc(NC(=O)N2CCCC2C(N)=O)sc1-c1ccnc(C(C)(C)C(F)(F)F)c1 — what was its viability, T/C?
Return: 82

Enquiry: May I ask what viability, T/C has been recorded for Cn1ncnc1[C@H]1c2n[nH]c(=O)c3cc(F)cc(c23)N[C@@H]1c1ccc(F)cc1 + CC(Nc1ncnc2nc[nH]c12)c1cc2cccc(Cl)c2c(=O)n1-c1ccccc1 ?
Return: 99.7

Enquiry: Param item = Cn1ncnc1[C@H]1c2n[nH]c(=O)c3cc(F)cc(c23)N[C@@H]1c1ccc(F)cc1 + COc1c(OCCCN2CCOCC2)ccc2c3n(c(=NC(=O)c4cnc(N)nc4)nc12)CCN3 ; retrieve measured viability, T/C.
Return: 46.6

Enquiry: Return reported viability, T/C; argument: CC(C)n1nc(-c2ccc3oc(N)nc3c2)c2c(N)ncnc21 + CC(Nc1ncnc2nc[nH]c12)c1cc2cccc(Cl)c2c(=O)n1-c1ccccc1
Return: 100

Enquiry: Please report the recorded viability, T/C for CC(C)n1nc(-c2ccc3oc(N)nc3c2)c2c(N)ncnc21 + COc1c(OCCCN2CCOCC2)ccc2c3n(c(=NC(=O)c4cnc(N)nc4)nc12)CCN3 .
Return: 45.8

====

Tested on: MDA-MB-231 multicell spheroids, viability
assayText: Anticancer human tumor MDA-MB-231 cell line growth inhibition [PI3K];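 note: spheroids exposed to agents for seven days before reading; percent of vehicle control luminescence with DMSO treated spheroids as 100%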
conditionDescription: second compound 0.01 µM; first compound 0.00316 µM; active compounds read low
propertyMeasured: viability, T/C

[
  {
    "molecule": "CC(C)n1nc(-c2ccc3oc(N)nc3c2)c2c(N)ncnc21 + COc1c(OCCCN2CCOCC2)ccc2c3n(c(=NC(=O)c4cnc(N)nc4)nc12)CCN3",
    "viability, T/C": "68.8%"
  },
  {
    "molecule": "Cn1ncnc1[C@H]1c2n[nH]c(=O)c3cc(F)cc(c23)N[C@@H]1c1ccc(F)cc1 + COc1c(OCCCN2CCOCC2)ccc2c3n(c(=NC(=O)c4cnc(N)nc4)nc12)CCN3",
    "viability, T/C": "68.9%"
  },
  {
    "molecule": "CC(=O)c1c(C)c2cnc(Nc3ccc(N4CCNCC4)cn3)nc2n(C2CCCC2)c1=O + COc1c(OCCCN2CCOCC2)ccc2c3n(c(=NC(=O)c4cnc(N)nc4)nc12)CCN3",
    "viability, T/C": "73.7%"
  },
  {
    "molecule": "CC(C)n1nc(-c2ccc3oc(N)nc3c2)c2c(N)ncnc21 + CC(Nc1ccc2c(c1)OCCn1cc(N3C(=O)OCC3C(F)F)nc1-2)C(N)=O",
    "viability, T/C": "89%"
  }
]

Pending molecule:
Enquiry: For the record CCN1CCN(Cc2ccc(Nc3ncc(F)c(-c4cc(F)c5nc(C)n(C(C)C)c5c4)n3)nc2)CC1 + CC(Nc1ccc2c(c1)OCCn1cc(N3C(=O)OCC3C(F)F)nc1-2)C(N)=O , what value of viability, T/C is listed for MDA-MB-231 multicell spheroids, viability?
Return: 92.7%

====

System: MDA-MB-231 multicell spheroids, viability
assayText: Anticancer human tumor MDA-MB-231 cell line growth inhibition [PI3K];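 note: spheroids exposed to agents for seven days before reading; percent of vehicle control luminescence with DMSO treated spheroids as 100%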
conditionDescription: second compound 0.0316 µM; first compound 0.000316 µM; active compounds read low
propertyMeasured: viability, T/C (%)
Give just the number in %; leave the unit off.

Use these answered entries as a reference point.
[
  {
    "compound": "Cn1ncnc1[C@H]1c2n[nH]c(=O)c3cc(F)cc(c23)N[C@@H]1c1ccc(F)cc1 + Cc1nc(NC(=O)N2CCCC2C(N)=O)sc1-c1ccnc(C(C)(C)C(F)(F)F)c1",
    "units": "%",
    "viability, T/C": 89.3
  },
  {
    "compound": "CC(C)n1nc(-c2ccc3oc(N)nc3c2)c2c(N)ncnc21 + Cc1nc(NC(=O)N2CCCC2C(N)=O)sc1-c1ccnc(C(C)(C)C(F)(F)F)c1",
    "units": "%",
    "viability, T/C": 94
  },
  {
    "compound": "Cn1ncnc1[C@H]1c2n[nH]c(=O)c3cc(F)cc(c23)N[C@@H]1c1ccc(F)cc1 + CC(Nc1ncnc2nc[nH]c12)c1cc2cccc(Cl)c2c(=O)n1-c1ccccc1",
    "units": "%",
    "viability, T/C": 106
  },
  {
    "compound": "CC(=O)c1c(C)c2cnc(Nc3ccc(N4CCNCC4)cn3)nc2n(C2CCCC2)c1=O + CC(Nc1ncnc2nc[nH]c12)c1cc2cccc(Cl)c2c(=O)n1-c1ccccc1",
    "units": "%",
    "viability, T/C": 96.8
  },
  {
    "compound": "Cn1ncnc1[C@H]1c2n[nH]c(=O)c3cc(F)cc(c23)N[C@@H]1c1ccc(F)cc1 + COc1c(OCCCN2CCOCC2)ccc2c3n(c(=NC(=O)c4cnc(N)nc4)nc12)CCN3",
    "units": "%",
    "viability, T/C": 57.8
  }
]

Enquiry: Recorded viability, T/C for CC(C)n1nc(-c2ccc3oc(N)nc3c2)c2c(N)ncnc21 + COc1c(OCCCN2CCOCC2)ccc2c3n(c(=NC(=O)c4cnc(N)nc4)nc12)CCN3 with MDA-MB-231 multicell spheroids, viability, please?
Return: 57.7

Enquiry: Record Cn1ncnc1[C@H]1c2n[nH]c(=O)c3cc(F)cc(c23)N[C@@H]1c1ccc(F)cc1 + CC(Nc1ccc2c(c1)OCCn1cc(N3C(=O)OCC3C(F)F)nc1-2)C(N)=O : what is its viability, T/C with MDA-MB-231 multicell spheroids, viability?
Return: 78.1

Enquiry: What reported viability, T/C corresponds to CC(=O)c1c(C)c2cnc(Nc3ccc(N4CCNCC4)cn3)nc2n(C2CCCC2)c1=O + COc1c(OCCCN2CCOCC2)ccc2c3n(c(=NC(=O)c4cnc(N)nc4)nc12)CCN3 on MDA-MB-231 multicell spheroids, viability?
Return: 58.4

====

Tested on: MDA-MB-231 multicell spheroids, viability
assayText: Anticancer human tumor MDA-MB-231 cell line growth inhibition [PI3K];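 note: spheroids exposed to agents for seven days before reading; percent of vehicle control luminescence with DMSO treated spheroids as 100%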
conditionDescription: second compound 0.00316 µM; first compound 0.316 µM; active compounds read low
Rule for this label: yes means viability, T/C is less than 90%; no means viability, T/C is at least 90%.

// known answers, use as guide
[
  {
    "molecule": "CC1(C)CCC(CN2CCN(c3ccc(C(=O)NS(=O)(=O)c4ccc(NCC5CCOCC5)c([N+](=O)[O-])c4)c(Oc4cnc5[nH]ccc5c4)c3)CC2)=C(c2ccc(Cl)cc2)C1 + CC(Nc1ccc2c(c1)OCCn1cc(N3C(=O)OCC3C(F)F)nc1-2)C(N)=O",
    "testedSystem": "MDA-MB-231 multicell spheroids, viability",
    "categoryLabel": "no"
  },
  {
    "molecule": "CCCS(=O)(=O)Nc1ccc(F)c(C(=O)c2c[nH]c3ncc(-c4ccc(Cl)cc4)cc23)c1F + COc1c(OCCCN2CCOCC2)ccc2c3n(c(=NC(=O)c4cnc(N)nc4)nc12)CCN3",
    "testedSystem": "MDA-MB-231 multicell spheroids, viability",
    "categoryLabel": "no"
  },
  {
    "molecule": "C#Cc1c(F)ccc2cc(O)cc(-c3ncc4c(N5CC6CCC(C5)N6)nc(OCC56CCCN5CC(F)C6)nc4c3F)c12 (stereo not given) + CC(Nc1ccc2c(c1)OCCn1cc(N3C(=O)OCC3C(F)F)nc1-2)C(N)=O",
    "testedSystem": "MDA-MB-231 multicell spheroids, viability",
    "categoryLabel": "no"
  },
  {
    "molecule": "CC1(C)CCC(Nc2ncc(C(F)(F)F)c(-c3c[nH]c4c(P(C)(C)=O)c(C#N)ccc34)n2)CN1 (stereo not given) + CC(Nc1ccc2c(c1)OCCn1cc(N3C(=O)OCC3C(F)F)nc1-2)C(N)=O",
    "testedSystem": "MDA-MB-231 multicell spheroids, viability",
    "categoryLabel": "yes"
  },
  {
    "molecule": "CCN1CCN(Cc2ccc(Nc3ncc(F)c(-c4cc(F)c5nc(C)n(C(C)C)c5c4)n3)nc2)CC1 + CC(Nc1ccc2c(c1)OCCn1cc(N3C(=O)OCC3C(F)F)nc1-2)C(N)=O",
    "testedSystem": "MDA-MB-231 multicell spheroids, viability",
    "categoryLabel": "yes"
  },
  {
    "molecule": "C#Cc1c(F)ccc2cc(O)cc(-c3ncc4c(N5CC6CCC(C5)N6)nc(OCC56CCCN5CC(F)C6)nc4c3F)c12 (stereo not given) + COc1c(OCCCN2CCOCC2)ccc2c3n(c(=NC(=O)c4cnc(N)nc4)nc12)CCN3",
    "testedSystem": "MDA-MB-231 multicell spheroids, viability",
    "categoryLabel": "yes"
  }
]

Enquiry: Lab note: viability, T/C threshold 90%. Does this molecule come in strictly under it? C=CC(=O)N1CCN(c2nc(=O)n(-c3c(C)ccnc3C(C)C)c3nc(-c4c(O)cccc4F)c(F)cc23)C(C)C1 (stereo not given) + CC(Nc1ccc2c(c1)OCCn1cc(N3C(=O)OCC3C(F)F)nc1-2)C(N)=O
Return: no

Enquiry: Determine if CC(C)NCC(C(=O)N1CCN(c2ncnc3c2C(C)CC3O)CC1)c1ccc(Cl)cc1 (stereo not given) + COc1c(OCCCN2CCOCC2)ccc2c3n(c(=NC(=O)c4cnc(N)nc4)nc12)CCN3 shows viability, T/C strictly lower than 90%.
Return: yes

Enquiry: Strictly below 90%: is that where viability, T/C of CCN1CCN(Cc2ccc(Nc3ncc(F)c(-c4cc(F)c5nc(C)n(C(C)C)c5c4)n3)nc2)CC1 + COc1c(OCCCN2CCOCC2)ccc2c3n(c(=NC(=O)c4cnc(N)nc4)nc12)CCN3 sits?
Return: yes
